- targetDesc: T1, GPR39 (G protein-coupled receptor 39) (Homo sapiens (Human), UniProt O43194 1-453)
- T1 sequence: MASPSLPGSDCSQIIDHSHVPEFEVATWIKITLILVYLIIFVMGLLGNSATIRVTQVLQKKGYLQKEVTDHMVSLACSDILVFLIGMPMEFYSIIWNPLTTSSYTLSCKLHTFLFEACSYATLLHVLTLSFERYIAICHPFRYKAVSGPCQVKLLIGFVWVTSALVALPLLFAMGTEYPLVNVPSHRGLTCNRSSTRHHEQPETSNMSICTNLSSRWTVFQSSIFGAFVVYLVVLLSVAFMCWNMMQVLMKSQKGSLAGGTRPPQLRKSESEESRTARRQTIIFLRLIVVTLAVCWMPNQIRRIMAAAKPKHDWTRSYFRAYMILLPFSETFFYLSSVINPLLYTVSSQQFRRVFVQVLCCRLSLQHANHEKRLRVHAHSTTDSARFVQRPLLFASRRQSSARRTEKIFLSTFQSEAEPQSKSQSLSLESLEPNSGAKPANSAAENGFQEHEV
- protocolDetails: cell-based or functional assay
Square brackets hold non-standard residues; d marks the D form. Ends that are not written are not given here. * marks the point of attachment. Fm = 9H-fluoren-9-yl, c1ccc2c(c1)-c1ccccc1C2*; 1‑(4-tert-butyl)phenyl = CC(C)(C)c1ccc(*)cc1; dPhe(4-Me) = Cc1ccc(C[C@@H](N)C(=O)O)cc1; Trt = c1ccc(C(c2ccccc2)(c2ccccc2)*)cc1; CH2(1-naphthyl) = c1ccc2c(C*)cccc2c1; Benzhydryl = c1ccc(C(c2ccccc2)*)cc1; Octanoyl = CCCCCCCC(=O)*
measurementName: EC50 (luciferase reporter) (µM)
Write the answer as a number in µM, unit excluded.

Examples from the recorded data:
H(Fm)K(Octanoyl)FY [HKFY-18] : 2.29
H(1‑(4-tert-butyl)phenyl)K(Octanoyl)[dPhe(4-Me)]Y [HKFY-61] : 0.02
H(Benzhydryl)K(Octanoyl)[dPhe(4-Me)]Y-NH2 [HKFY-66] : 0.011
HK(Octanoyl)FY (not fully specified (residue 1)) [HKFY-9] : 42.7
H(CH2(1-naphthyl))K(Octanoyl)FY [HKFY-10] : 46.5

// field: EC50 (luciferase reporter); key: H(Trt)K(Octanoyl)[dPhe(4-Me)]Y [HKFY-30] ; value = 0.008

Sourced from patent US20230212222A1
